tested on: Alopecurus myosuroides (ALOMY); assay: C. Herbicidal pre-emergence efficacy, ALOMY; format: in vivo; details: 320 g/ha, scored after about 3 weeks
compounds and their reported Pre-emergence efficacy against ALOMY
Quantity kind: Pre-emergence efficacy against ALOMY (%)

- O=S(=O)(CCCCCl)Oc1ccccc1Oc1ncc(Cl)cn1: 90
- O=S(=O)(CCCC(F)(F)C(F)(F)F)Oc1c(F)cccc1Oc1ncc(Cl)cn1: 90
- O=S(=O)(CCC(F)(F)F)Oc1c(Cl)cccc1Oc1ncc(Cl)cn1: 100
- O=S(=O)(CCC(F)(F)F)Oc1c(Cl)cccc1Oc1ncc(Br)cn1: 100
- CC(C)CS(=O)(=O)Oc1ccccc1Oc1ncc(Cl)cn1: 100
- C=CCCS(=O)(=O)Oc1c(F)cccc1Oc1ncc(Cl)cn1: 90
- COCCS(=O)(=O)Oc1c(F)cccc1Oc1ncc(Cl)cn1: 100
- N#Cc1cccc(Oc2ncc(Cl)cn2)c1OS(=O)(=O)CCCC(F)(F)F: 90
- O=S(=O)(CCCCl)Oc1c(F)cccc1Oc1ncc(Cl)cn1: 100

====

tested on: Triticum aestivum (TRZAS); test: F. Post-emergence effect on useful plants, TRZAS; format: in vivo; conditions: useful plant, application rate 80 g/ha
compounds and their reported Post-emergence efficacy against TRZAS in %
Quantity kind: Post-emergence efficacy against TRZAS in % (%)

• O=S(=O)(CCC(F)(F)F)Oc1c(Cl)cccc1Oc1ncc(Cl)cn1 [Example I-38] = 10
• O=S(=O)(CCC(F)(F)F)Oc1c(F)cccc1Oc1ncc(Cl)cn1 [Example I-48] = 10
• O=S(=O)(CCC(F)(F)F)Oc1c(Cl)cccc1Oc1ncc(Br)cn1 [Example I-32] = 0
• N#Cc1cccc(Oc2ncc(Cl)cn2)c1OS(=O)(=O)CCCC(F)(F)F [Example I-81] = 0
• O=S(=O)(CCCCl)Oc1ccccc1Oc1ncc(F)cn1 [Example I-5] = 20
• O=S(=O)(CCCC(F)(F)F)Oc1c(F)cccc1Oc1ncc(Cl)cn1 [Example I-49] = 20
• Cc1cccc(OS(=O)(=O)CCCCl)c1Oc1ncc(Cl)cn1 [Example I-12] = 0
• O=S(=O)(CCC1CC1)Oc1c(F)cccc1Oc1ncc(Cl)cn1 [Example I-55] = 20
• O=S(=O)(CCCC(F)(F)C(F)(F)F)Oc1c(F)cccc1Oc1ncc(Cl)cn1 [Example I-68] = 20

====

system: Zea mays (ZEAMX); assay: F. Post-emergence effect on useful plants, ZEAMX; format: in vivo; conditions: useful plant, application rate 320 g/ha
Quantity kind: Post-emergence efficacy against ZEAMX in % (%)

* Cc1cccc(Oc2ncc(Cl)cn2)c1OS(=O)(=O)CC=C(Cl)Cl | 20
* N#Cc1cccc(Oc2ncc(Cl)cn2)c1OS(=O)(=O)CCC(F)(F)F | 20
* O=S(=O)(CCl)Oc1ccccc1Oc1ncc(Cl)cn1 | 20
* COCCS(=O)(=O)Oc1c(F)cccc1Oc1ncc(Cl)cn1 | 0
* O=S(=O)(CCCC(F)(F)F)Oc1c(F)cccc1Oc1ncc(Br)cn1 | 20

====

system: Setaria viridis (SETVI); experiment: C. Herbicidal pre-emergence efficacy, SETVI; assay type: in vivo; conditions: 320 g/ha, scored after about 3 weeks
Quantity kind: Pre-emergence efficacy against SETVI (%)

• Cc1cccc(Oc2ncc(F)cn2)c1OS(=O)(=O)CCC(F)(F)F = 100
• O=S(=O)(CCCC(F)(F)C(F)(F)F)Oc1c(F)cccc1Oc1ncc(Cl)cn1 = 100
• C=CCCS(=O)(=O)Oc1c(F)cccc1Oc1ncc(Cl)cn1 = 100
• O=S(=O)(CCCC(F)(F)F)Oc1c(F)cccc1Oc1ncc(Br)cn1 = 100
• CCCCS(=O)(=O)Oc1ccccc1Oc1ncc(Cl)cn1 = 100
